Reference source: patent US20240101531A1

This section presents compounds with their documented pEC50 values.
- Assay target: human KV7.2/KV7.3 (Homo sapiens (Human), UniProt O43525+O43526)
- Test details: Potassium flux assay (IPG-2 AM dye)
- Recorded conditions: TREX HEK 293 or HEK 293 cells expressing human KV7.2/KV7.3; arithmetic mean values
pEC50: −log10 of the molar value.

> print(dat)
                                   molecule  value.kind  assay.result
1  Cc1n[nH]cc1COc1ccc2c(Nc3ccc(Cl)nc3)nccc2c1       pEC50        > 6.00

// query Name the recorded pEC50 of the item `FC(F)(F)CN1CC(COc2ccc3c(Nc4ccc(Cl)nc4)nccc3c2)C1` in your answer.
// result 5.00 to 6.00

// query Answer with reported pEC50 of `Clc1ccc(Nc2nccc3cc(OC4CCC4)ccc23)cn1`
// result 5.00 to 6.00

// query Return the recorded pEC50 value; entry: `O=C(Nc1ccc2c(Nc3ccc(Cl)nc3)nccc2c1)C1(CO)CC1`
// result ≤ 4.52

// query Return the recorded pEC50 value; entry: `O[C@H]1C[C@H](Oc2ccc3c(Nc4ccc(Cl)nc4)nccc3c2)C1`
// result 5.00 to 6.00

* * *

- Assay target: human KV7.2/KV7.3 (Homo sapiens (Human), UniProt O43525+O43526)
- Test details: Potassium flux assay (IPG-2 AM dye)
- Recorded conditions: TREX HEK 293 or HEK 293 cells expressing human KV7.2/KV7.3; arithmetic mean values
Value kind: EC50

Observe how each entry below is paired with its result.
> print(dat)
                                   molecule      assay.result
1  C#CC(C)(C)COc1ccc2c(Nc3ccc(Cl)nc3)nccc2c1  1000 to 10000 nM
2  N#C[C@H]1CCC[C@@H](Oc2ccc3c(Nc4ccc(Cl)nc4)nccc3c2)C1  1000 to 10000 nM

// query Using the record for `Cc1ncc(Nc2nccc3cc(OCC4COC4)ccc23)cn1` , state its measured EC50.
// result 1000 to 10000 nM

// query Identify EC50 associated with the compound `OC1(COc2ccc3c(Nc4ccc(Cl)nc4)nccc3c2)COC1`
// result 1000 to 10000 nM

// query Recall and state the measured EC50 for `Clc1ncc(Nc2nccc3cc(OCC4CC4)ccc23)cn1` .
// result < 1000 nM

* * *

Let's look at some molecules and their measured pEC50.
- Assay target: human KV7.2/KV7.3 (Homo sapiens (Human), UniProt O43525+O43526)
- Test details: Potassium flux assay (IPG-2 AM dye)
- Recorded conditions: TREX HEK 293 or HEK 293 cells expressing human KV7.2/KV7.3; arithmetic mean values
pEC50: −log10 of the molar value.

> print(dat)
                                   molecule                              assay.target  value.kind  assay.result
1  CC1(COc2ccc3c(Nc4ccc(Cl)nc4)nccc3c2)CCCO1 (stereo not shown)  human KV7.2/KV7.3 (Homo sapiens (Human), UniProt O43525+O43526)       pEC50        > 6.00
2  CS(C)(=O)=Nc1ccc2c(Nc3ccc(Cl)nc3)nccc2c1  human KV7.2/KV7.3 (Homo sapiens (Human), UniProt O43525+O43526)       pEC50  5.00 to 6.00
3  Cc1nn(C)cc1C(C)Oc1ccc2c(Nc3ccc(Cl)nc3)nccc2c1 (racemic)  human KV7.2/KV7.3 (Homo sapiens (Human), UniProt O43525+O43526)       pEC50  5.00 to 6.00
4  CS(=O)(=O)CCCOc1ccc2c(Nc3ccc(Cl)nc3)nccc2c1  human KV7.2/KV7.3 (Homo sapiens (Human), UniProt O43525+O43526)       pEC50  5.00 to 6.00
5  Cc1ncc(Nc2nccc3cc(O[C@@H]4CCC[C@H](O)C4)ccc23)cn1  human KV7.2/KV7.3 (Homo sapiens (Human), UniProt O43525+O43526)       pEC50        > 6.00

// query Specify pEC50 for `COc1nn(C)cc1COc1ccc2c(Nc3ccc(Cl)nc3)nccc2c1` and stop.
// result > 6.00

// query Supply measured pEC50 of `Oc1ccc2c(Nc3ccc(Cl)nc3)nccc2c1` in your reply.
// result 4.52 to 5.00

// query Determine its reported pEC50: `Cc1ccc(Nc2nccc3cc(OCC4CC4)ccc23)cn1`
// result 5.00 to 6.00

* * *

Readings of pEC50 for the listed compounds
- Assay target: human KV7.2/KV7.3 (Homo sapiens (Human), UniProt O43525+O43526)
- Test details: Potassium flux assay (IPG-2 AM dye)
- Recorded conditions: TREX HEK 293 or HEK 293 cells expressing human KV7.2/KV7.3; arithmetic mean values
pEC50: −log10 of the molar value. Where a name gives a salt, the structure may show the parent alone.

Field: example entries. Status: answers known.
> print(dat)
                                   compound  value.kind  assay.result
1  Clc1ccc(Nc2nccc3cc(OCCN4CC5(CCC5)C4)ccc23)cn1 [Example 71]       pEC50  4.52 to 5.00
2  Clc1ccc(Nc2nccc3cc(OC4CCN(Cc5ccccc5)C4)ccc23)cn1 (centres unmarked) [Example 282]       pEC50  5.00 to 6.00

// query Quick one: give measured pEC50 for CS(=O)(=O)C1(COc2ccc3c(Nc4ccc(Cl)nc4)nccc3c2)CC1 [Example 286]
// result 5.00 to 6.00

// query Report pEC50, nothing else, for this compound: Cn1cc(COc2ccc3c(Nc4ccc(Cl)nc4)nccc3c2)cn1 [Example 196]
// result > 6.00

// query Return pEC50 for the following compound: Clc1ccc(Nc2ncc(NCc3ccccc3)c3cc[nH]c23)cn1 [Example 403]
// result 4.52 to 5.00

// query Check the records and state pEC50 for Cc1ncc(Nc2nccc3cc(OCC4(C#N)CC4)ccc23)cn1 [Example 127]
// result > 6.00

// query Could you please provide reported pEC50 for Cc1ccc(Nc2nccc3cc(OCc4c[nH]nc4C)ccc23)cn1 [Example 427, formate] ? Thanks!
// result > 6.00

// query Output pEC50 of Cn1cc(OCc2ccc3c(Nc4ccc(Cl)nc4)nccc3c2)cn1 [Example 249]
// result 5.00 to 6.00

// query Using the record for COCCn1cc(COc2ccc3c(Nc4ccc(Cl)nc4)nccc3c2)cn1 [Example 336] , state its measured pEC50.
// result 5.00 to 6.00

// query Output pEC50 of COc1ncc(Nc2nccc3cc(OCC4(C#N)CC4)ccc23)cn1 [Example 373]
// result > 6.00

// query For the compound Cc1ncc(Nc2nccc3cc(OCc4cncnc4)ccc23)cn1 [Example 308] , report pEC50.
// result 5.00 to 6.00

// query For the compound Clc1ccc(Nc2nccc3ccccc23)cn1 [Example 33] , give its measured pEC50 value.
// result 5.00 to 6.00

// query Please report pEC50 for the following compound: Cc1ccc2c(Nc3ccc(Cl)nc3)nccc2c1 [Example 20, formate]
// result 5.00 to 6.00

// query State, in one line, measured pEC50 of Clc1ccc(Nc2nccc3cc(OCCN4CCOCC4)ccc23)cn1 [Example 201]
// result 5.00 to 6.00

// query Provide only the value of recorded pEC50 for CC1(COc2ccc3c(Nc4cnc(Cl)c(O)c4)nccc3c2)COC1 [Example 42]
// result > 6.00

// query Consider the compound Clc1ccc(Nc2nccc3ccsc23)cn1 [Example 12] . State its measured pEC50.
// result 5.00 to 6.00

// query Tell me measured pEC50 for Clc1ccc(Nc2nccc3cc(OCC4CC45CCC5)ccc23)cn1 (centres unmarked) [Example 332] please.
// result 5.00 to 6.00

// query Give the measured pEC50 for COc1ccc(Nc2nccc3cc(OCC4(C)COC4)ccc23)cn1 [Example 67]
// result ≤ 4.52

// query For OC12CC3CC(C1)CC(Oc1ccc4c(Nc5ccc(Cl)nc5)nccc4c1)(C3)C2 [Example 331] , write its pEC50.
// result > 6.00

// query Note pEC50 for the compound shown: O=C1OCCN1CCOc1ccc2c(Nc3ccc(Cl)nc3)nccc2c1 [Example 107]
// result 5.00 to 6.00

* * *

Quick list: EC50 per entry.
- Assay target: human KV7.2/KV7.3 (Homo sapiens (Human), UniProt O43525+O43526)
- Test details: Potassium flux assay (IPG-2 AM dye)
- Recorded conditions: TREX HEK 293 or HEK 293 cells expressing human KV7.2/KV7.3; arithmetic mean values

Worked cases, answers included:
> print(dat)
                                   molecule  assay.result
1  O[C@@H]1CC[C@@H](Oc2ccc3c(Nc4ccc(Cl)nc4)nccc3c2)C1 (racemic)        < 1 µM
2  C[C@H](Oc1ccc2c(Nc3ccc(Cl)nc3)nccc2c1)c1cnn(C)c1        < 1 µM

We next turn to a different molecule, shown below.
// query Supply EC50 measured with human KV7.2/KV7.3 (Homo sapiens (Human), UniProt O43525+O43526) for `CC1(C)CC[C@@H](COc2ccc3c(Nc4ccc(Cl)nc4)nccc3c2)O1` .
// result 1 to 10 µM
